target: JAK1 (Homo sapiens (Human)); test: Inhibition of JAK, luminescence kinase assay (ADP-Glo), JAK1; assay type: biochemical; conditions: purified recombinant JAK1; Table 1
Sequence (P23458 whole entry): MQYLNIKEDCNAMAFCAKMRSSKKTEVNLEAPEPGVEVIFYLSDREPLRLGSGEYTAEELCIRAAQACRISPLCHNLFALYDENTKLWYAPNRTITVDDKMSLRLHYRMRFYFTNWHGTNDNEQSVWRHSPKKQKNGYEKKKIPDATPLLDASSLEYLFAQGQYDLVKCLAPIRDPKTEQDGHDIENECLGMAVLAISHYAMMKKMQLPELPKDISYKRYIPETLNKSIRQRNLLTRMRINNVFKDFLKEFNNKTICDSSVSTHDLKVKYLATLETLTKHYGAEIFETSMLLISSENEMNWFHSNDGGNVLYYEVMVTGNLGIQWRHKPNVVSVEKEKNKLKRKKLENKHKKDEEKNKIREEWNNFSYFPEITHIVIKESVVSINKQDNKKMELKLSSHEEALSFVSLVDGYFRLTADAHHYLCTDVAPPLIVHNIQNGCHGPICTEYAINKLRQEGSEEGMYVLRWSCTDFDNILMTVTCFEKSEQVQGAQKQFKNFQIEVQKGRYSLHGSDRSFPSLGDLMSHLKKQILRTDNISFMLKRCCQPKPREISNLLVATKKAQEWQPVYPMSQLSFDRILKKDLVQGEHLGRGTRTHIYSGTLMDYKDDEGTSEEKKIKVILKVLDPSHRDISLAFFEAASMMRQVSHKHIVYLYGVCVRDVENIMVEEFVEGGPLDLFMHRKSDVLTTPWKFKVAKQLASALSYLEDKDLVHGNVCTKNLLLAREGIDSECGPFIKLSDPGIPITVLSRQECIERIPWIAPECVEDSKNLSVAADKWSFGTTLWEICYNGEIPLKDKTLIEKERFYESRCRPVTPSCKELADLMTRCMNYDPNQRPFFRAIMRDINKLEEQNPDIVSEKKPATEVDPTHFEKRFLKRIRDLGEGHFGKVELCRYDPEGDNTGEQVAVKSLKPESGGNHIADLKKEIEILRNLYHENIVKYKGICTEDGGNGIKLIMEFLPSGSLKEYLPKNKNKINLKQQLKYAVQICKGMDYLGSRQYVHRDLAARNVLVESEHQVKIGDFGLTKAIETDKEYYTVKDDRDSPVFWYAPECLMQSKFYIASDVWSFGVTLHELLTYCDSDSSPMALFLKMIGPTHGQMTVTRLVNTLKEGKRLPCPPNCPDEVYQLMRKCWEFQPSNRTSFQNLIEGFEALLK
pIC50: −log10 of the molar value.
Measurement Type: pIC50

Entry CCS(=O)(=O)C1CN(Cc2ccc(-c3cccn4nc(N)nc34)cc2)C1 , pIC50 reported as < 7.30

Entry CS(=O)(=O)C1CN(Cc2ccc(-c3cccc4nc(N)nn34)cc2)C1 , pIC50 reported as 7.30 to 7.70

Entry CCS(=O)(=O)C1CN(Cc2ccc(-c3cccc4nc(NC(=O)C5CC5)nn34)cc2)C1 , pIC50 reported as 7.30 to 7.70

Entry CS(=O)(=O)C1CN(Cc2ccc(-c3cccn4nc(NC(=O)C5CC5)nc34)cc2F)C1 , pIC50 reported as 7.30 to 7.70

Entry CS(=O)(=O)C1CN(Cc2ccc(-c3cccn4nc(N)nc34)cc2)C1 , pIC50 reported as 7.30 to 7.70

Entry CCS(=O)(=O)C1CN(Cc2ccc(-c3cccn4nc(NC(=O)C(C)C)nc34)cc2)C1 , pIC50 reported as 7.30 to 7.70

Entry CS(=O)(=O)C1CN(Cc2ccc(-c3cccn4nc(NC(=O)C5CC5)nc34)cc2)C1 , pIC50 reported as 7.30 to 7.70

Entry O=C(Nc1nc2c(-c3ccc(CN4CC(S(=O)(=O)C5CC5)C4)cc3)cccn2n1)C1CC1 , pIC50 reported as < 7.30

Entry CCS(=O)(=O)C1CN(Cc2ccc(-c3cccc4nc(NC(=O)C(C)C)nn34)cc2)C1 , pIC50 reported as < 7.30

Entry CCS(=O)(=O)C1CN(Cc2ccc(-c3cccn4nc(NC(=O)C5CC5)nc34)cc2)C1 , pIC50 reported as 7.30 to 7.70

Entry CC(C)C(=O)Nc1nc2cccc(-c3ccc(CN4CC(S(=O)(=O)C5CC5)C4)cc3)n2n1 , pIC50 reported as 7.30 to 7.70

Entry CS(=O)(=O)C1CN(Cc2c(F)cc(-c3cccn4nc(NC(=O)C5CC5)nc34)cc2F)C1 , pIC50 reported as < 7.30

Entry CC(C)C(=O)Nc1nc2c(-c3ccc(CN4CC(S(=O)(=O)C5CC5)C4)cc3)cccn2n1 , pIC50 reported as 7.30 to 7.70

Entry O=S1(=O)CCN(Cc2ccc(-c3ncnc4[nH]ccc34)cc2)CC1 , pIC50 reported as > 7.70

Entry CS(=O)(=O)C1CN(Cc2ccc(-c3cccc4nc(NC(=O)C5CC5)nn34)cc2F)C1 , pIC50 reported as 7.30 to 7.70

Entry CS(=O)(=O)C1CN(Cc2ccc(-c3cccc4nc(NC(=O)C5CC5)nn34)cc2)C1 , pIC50 reported as 7.30 to 7.70

Entry CC(C)C(=O)Nc1nc2c(-c3ccc(CN4CC(S(C)(=O)=O)C4)cc3)cccn2n1 , pIC50 reported as 7.30 to 7.70

Entry CS(=O)(=O)C1CN(Cc2c(F)cc(-c3cccc4nc(NC(=O)C5CC5)nn34)cc2F)C1 , pIC50 reported as 7.30 to 7.70
